# Test system: HS 578T breast
# procedure-summary: NCI tumour cell line growth inhibition, 48 h
For each entry below, report its TGI value.

Lookup: Under HS 578T breast, report TGI for CC(C)c1ccc2c(N=Nc3ccc(S(N)(=O)=O)cc3)c(O)[nH]c2c1
Found: > 25 µM

Lookup: Write down measured TGI (HS 578T breast) for this compound. CC1(C)CC(=O)C(CC(C(=O)C(=O)Nc2cc(C(F)(F)F)ccc2Cl)C(=O)c2ccco2)C(=O)C1 (stereo not drawn)
Found: > 100 µM

Lookup: Recall the reported TGI of O=C(c1ccccn1)c1nnn2ccccc12 when tested on HS 578T breast.
Found: > 100 µM

Lookup: # assay system HS 578T breast: give TGI of COc1ccc2c(CC(=O)O)cc(=O)oc2c1
Found: > 100 µM

Lookup: Answer briefly: TGI recorded on HS 578T breast for C/C(=N\Nc1nc2ccccc2[nH]1)c1ccncn1
Found: > 100 µM

Lookup: Report value only: TGI, HS 578T breast, COc1ccc(/C=C/C(=O)c2nc3ccccc3[nH]2)cc1
Found: > 77.2 µM

Lookup: Please respond with reported TGI (system HS 578T breast) for COc1ccc(C2=NN(C(=O)c3ccccc3)C(O)(c3cc(F)c(Cl)cc3Cl)C2)cc1OC (stereo not drawn) .
Found: > 100 µM

Lookup: Specify TGI for Cc1nc2c(=O)[nH]c3ccccc3c2o1 , system HS 578T breast.
Found: > 100 µM

Lookup: Provide TGI, recorded with HS 578T breast, of NC(=O)Cc1ncn(-c2ccccc2)n1
Found: > 100 µM

Lookup: Find the measured TGI of CCOC(=O)C1(Cc2ccccc2)Cc2cc3c(cc2C1=O)CCC3 (stereo not drawn) with HS 578T breast as test system.
Found: > 100 µM

Lookup: Specify the recorded TGI for CCOC(=O)C1c2[nH]c3ccccc3c2CCN1C(=O)c1ccco1 (stereo not drawn) , system: HS 578T breast.
Found: > 10 µM

Lookup: Give the observed TGI of CCc1ccc(CCC(=O)O)nc1 for HS 578T breast.
Found: > 100 µM

Lookup: For HS 578T breast, give the measured TGI of the entry COc1ccc(S(=O)(=O)N2CCN(C(=O)OCc3ccccc3)CC2C(=O)NO)cc1 (stereo not drawn)
Found: > 25 µM

###

What TGI was measured for each of the following?
# Tested on: M14 melanoma
# procedure-summary: NCI tumour cell line growth inhibition, 48 h

Lookup: Tell me TGI reported for C[C@H](CCC(=O)O[C@@H]1CC[C@@]2(C)C(CC[C@H]3[C@@H]4CC[C@H]([C@H](C)CCc5nc6ccccc6[nH]5)[C@@]4(C)CC[C@@H]32)C1)[C@H]1CC[C@H]2[C@@H]3CCC4C[C@H](O)CC[C@]4(C)[C@H]3CC[C@]12C (stereo partly drawn)
Found: > 100 µM

Lookup: Please give measured TGI of the following entry: Fc1ccc(CNc2c3ccccc3nc3ccccc23)cc1
Found: 12.4 µM

Lookup: Identify TGI associated with the molecule CC(C)(C)[Si](C)(C)OCC1OC(n2cc(F)c(=O)[nH]c2=O)CC1O[Si](C)(C)C(C)(C)C (stereo not drawn)
Found: 30.9 µM

Lookup: Supply reported TGI belonging to this molecule: COc1ccc2c(c1)CCc1cnn(C3OC(COC(C)=O)C(OC(C)=O)C(OC(C)=O)C3OC(C)=O)c1-2 (stereo not drawn)
Found: > 100 µM

Lookup: Output measured TGI for this item: CC(C)(C)C(=O)OCOP(=O)(OCOC(=O)C(C)(C)C)C1CCCN(OC(=O)c2ccccc2)C1=O (stereo not drawn)
Found: 16.5 µM

Lookup: Fill in TGI for record CCOC(=O)C1c2[nH]c3ccccc3c2CCN1C(=O)c1ccco1 (stereo not drawn)
Found: > 10 µM

Lookup: Tell us which TGI value is on record for COc1ccc(C(=O)C(c2ccc(OC)cc2)C2C(=O)Oc3ccccc32)cc1 (stereo not drawn)
Found: > 100 µM

Lookup: Answer with the recorded TGI for the molecule listed here: C/C(=N\Nc1ccc2ccccc2n1)c1ccccc1O
Found: > 100 µM

Lookup: Return TGI (reported value) for this molecule: CC1(C)CC(=O)C(CC(C(=O)C(=O)Nc2cc(C(F)(F)F)ccc2Cl)C(=O)c2ccco2)C(=O)C1 (stereo not drawn)
Found: > 100 µM

Lookup: Give recorded TGI. CC(C)=CCC[C@](C)(O)[C@H]1CC[C@]2(C)[C@@H]1[C@H](O)C[C@@H]1[C@@]3(C)CC[C@H](O[C@@H]4O[C@H](CO)[C@@H](O)[C@H](O)[C@H]4O)C(C)(C)[C@@H]3CC[C@]12C
Found: 46 µM

Lookup: Provide only the value of recorded TGI for O=C(Nc1ccc(Cl)c(Cl)c1)C(=O)C(C1OC(=O)c2ccccc21)[N+](=O)[O-] (stereo not drawn)
Found: > 100 µM

Lookup: For the molecule CC(=O)c1c2c(cc3c1CC1(Cc4cc5c(cc4C1=O)CCC5)C3)CCC2 (stereo not drawn) , report TGI.
Found: > 100 µM

Lookup: In one line, give reported TGI of the entry CCOC(=O)c1ccc2c(c1)[n+](=O)c(C(=O)c1ccc3ccccc3c1)c(C(F)(F)F)n2[O-] .
Found: 2.74 µM

Lookup: Report measured TGI; entry is O=C(CSc1nc2ccc([N+](=O)[O-])cc2[nH]1)Nc1cccc(Cl)c1
Found: 13.6 µM

Lookup: Identify measured TGI associated with O=C(O)Cn1nnc2c(=O)[nH][nH]c(=O)c21
Found: > 100 µM

Lookup: Determine its reported TGI: O=C1Nc2ccccc2C1(c1ccc(O)c(F)c1)c1ccc(O)c(F)c1
Found: 65.5 µM

Lookup: Specify reported TGI for the molecule shown: CC1=NN(C(=O)CC(=O)Nc2ccccc2C)C(=O)C1N=Nc1ccc(S(=O)(=O)c2ccc(N=NC3C(=O)N(C(=O)CC(=O)Nc4ccccc4C)N=C3C)cc2)cc1 (stereo not drawn)
Found: > 100 µM

Lookup: Supply reported TGI belonging to this molecule: COc1ccc(C(=O)/C=C2\c3ccccc3C(=O)N2C)cc1
Found: > 100 µM

Lookup: Hello, please tell me recorded TGI for this one: O=C(N1CCOCC1)C1(c2ccccc2)CCNCC1
Found: > 100 µM

Lookup: Entry COC(=O)[C@@]12CC[C@]1(C(=O)OC)C1C(C)=CC(=O)O[C@@]12C (stereo partly drawn) needs its TGI filled in; supply it.
Found: > 100 µM

Lookup: Specify measured TGI for CC(C)(C)c1ccc(-c2nc3ccccc3c(=O)o2)cc1 .
Found: > 100 µM

Lookup: Please supply the value of reported TGI for the item Cc1cc(Cl)ccc1NC(=O)/C(Cl)=C(/Cl)C(=O)O
Found: 72.1 µM

Lookup: Please list TGI recorded for the molecule CC(=O)Nc1ccc2c3c(cc(O)c2c1)N(C(=O)CCCC(=O)Nc1ccc2c4c(cc(O)c2c1)N(C(=O)OC(C)(C)C)CC4CCl)CC3CCl (stereo not drawn)
Found: 13.2 µM

Lookup: State its TGI: O=C(CCc1nnc(-c2c(Cl)cccc2Cl)o1)c1nc2ccccc2[nH]1
Found: 31.5 µM

Lookup: Return value of TGI for input CC(Oc1ccccc1)C(=O)NN (stereo not drawn) , no commentary.
Found: > 100 µM

Lookup: Provide only the value of recorded TGI for C#CC[C@@H]1C[C@]2(C)[C@H]3CC[C@@H]4[C@H]5[C@H](C(=C)C)CC[C@]5(C(=O)O)CC[C@@]4(C)[C@]3(C)CC[C@H]2C(C)(C)[C@H]1O
Found: 4.68 µM

Lookup: Input Brc1ccccc1/C=C\C1(c2ccccc2)OCCO1 , output reported TGI.
Found: 25.6 µM

Lookup: Kindly indicate its recorded TGI. Item: COc1nc(/C=N/NC(N)=S)nc(OC)n1
Found: > 100 µM

Lookup: Report TGI, nothing else, for this molecule: O=C1NCC2(CCN(Cc3ccccc3)CC2)N1
Found: > 100 µM

Lookup: For the molecule OCCOCCN1CCN(c2nc(N3CCCC3)c3nc(Cl)c(NCc4ccccc4)nc3n2)CC1 , give its reported TGI.
Found: 24.8 µM

Lookup: Specify measured TGI for O=C(CCCCC(=O)N/N=C\c1ccccc1Cl)N/N=C\c1ccccc1Cl .
Found: > 100 µM

Lookup: Provide one value: measured TGI of CC(C)c1ccc2c(N=Nc3ccc(S(N)(=O)=O)cc3)c(O)[nH]c2c1
Found: > 25 µM

Lookup: Tell me measured TGI for CSC(=S)N/N=C/c1ccccc1 please.
Found: > 100 µM
